assay: refractive index (Na D-line) (dimensionless); wn = mass fraction of the nth substance listed; conditions: 298.15 K; 100 kPa; Liquid; Standard Abbe refractometry; w1 = 0.15
Assay metric: refractive index

1) OC[C@H]1O[C@H](O)[C@H](O)[C@@H](O)[C@@H]1O [α-D-glucose] + O: 1.3548
2) [Ca+2].[Cl-].[Cl-] [calcium chloride] + O: 1.3686
3) [Cl-].[K+] [potassium chloride] + O: 1.3571
4) [Cl-].[Na+] [sodium chloride] + O: 1.3604

* * *

experiment: refractive index (Na D-line) (dimensionless); wn = mass fraction of the nth substance listed; conditions: 313.15 K; 100 kPa; Liquid; Standard Abbe refractometry; w1 = 0.15
Assay metric: refractive index

1) [Cl-].[K+] [potassium chloride] + O: 1.3554
2) [Ca+2].[Cl-].[Cl-] [calcium chloride] + O: 1.3667
3) OC[C@H]1O[C@H](O)[C@H](O)[C@@H](O)[C@@H]1O [α-D-glucose] + O: 1.3527
4) [Cl-].[Na+] [sodium chloride] + O: 1.358

* * *

test: refractive index (Na D-line) (dimensionless); wn = mass fraction of the nth substance listed; conditions: 313.15 K; 100 kPa; Liquid; Standard Abbe refractometry; w1 = 0.05
Assay metric: refractive index

1. [Cl-].[K+] [potassium chloride] + O: 1.3384
2. [Cl-].[Na+] [sodium chloride] + O: 1.3407
3. OC[C@H]1O[C@H](O)[C@H](O)[C@@H](O)[C@@H]1O [α-D-glucose] + O: 1.3388
4. [Ca+2].[Cl-].[Cl-] [calcium chloride] + O: 1.342

* * *

experiment: refractive index (Na D-line) (dimensionless); wn = mass fraction of the nth substance listed; settings: 298.15 K; 100 kPa; Liquid; Standard Abbe refractometry; w1 = 0.05
Assay metric: refractive index

1. [Cl-].[K+] [potassium chloride] + O: 1.3401
2. [Ca+2].[Cl-].[Cl-] [calcium chloride] + O: 1.3437
3. [Cl-].[Na+] [sodium chloride] + O: 1.3428
4. OC[C@H]1O[C@H](O)[C@H](O)[C@@H](O)[C@@H]1O [α-D-glucose] + O: 1.3406

* * *

assay: refractive index (Na D-line) (dimensionless); wn = mass fraction of the nth substance listed; settings: 293.15 K; 100 kPa; Liquid; Standard Abbe refractometry; w1 = 0.01
Assay metric: refractive index

1) [Cl-].[K+] [potassium chloride] + O: 1.3349
2) [Ca+2].[Cl-].[Cl-] [calcium chloride] + O: 1.3356
3) OC[C@H]1O[C@H](O)[C@H](O)[C@@H](O)[C@@H]1O [α-D-glucose] + O: 1.336
4) [Cl-].[Na+] [sodium chloride] + O: 1.3365

* * *

assay: refractive index (Na D-line) (dimensionless); wn = mass fraction of the nth substance listed; conditions: 308.15 K; 100 kPa; Liquid; Standard Abbe refractometry; w1 = 0.1
Assay metric: refractive index

1. [Ca+2].[Cl-].[Cl-] [calcium chloride] + O: 1.3551
2. [Cl-].[K+] [potassium chloride] + O: 1.347
3. [Cl-].[Na+] [sodium chloride] + O: 1.3502
4. OC[C@H]1O[C@H](O)[C@H](O)[C@@H](O)[C@@H]1O [α-D-glucose] + O: 1.3463

* * *

experiment: refractive index (Na D-line) (dimensionless); wn = mass fraction of the nth substance listed; settings: 313.15 K; 100 kPa; Liquid; Standard Abbe refractometry; w1 = 0.1
Assay metric: refractive index

1) [Cl-].[Na+] [sodium chloride] + O: 1.3495
2) [Ca+2].[Cl-].[Cl-] [calcium chloride] + O: 1.3546
3) [Cl-].[K+] [potassium chloride] + O: 1.3464
4) OC[C@H]1O[C@H](O)[C@H](O)[C@@H](O)[C@@H]1O [α-D-glucose] + O: 1.3455

* * *

experiment: refractive index (Na D-line) (dimensionless); wn = mass fraction of the nth substance listed; conditions: 293.15 K; 100 kPa; Liquid; Standard Abbe refractometry; w1 = 0.05
Assay metric: refractive index

1) [Cl-].[K+] [potassium chloride] + O: 1.3405
2) [Cl-].[Na+] [sodium chloride] + O: 1.3434
3) [Ca+2].[Cl-].[Cl-] [calcium chloride] + O: 1.3442
4) OC[C@H]1O[C@H](O)[C@H](O)[C@@H](O)[C@@H]1O [α-D-glucose] + O: 1.3412

* * *

test: refractive index (Na D-line) (dimensionless); wn = mass fraction of the nth substance listed; conditions: 318.15 K; 100 kPa; Liquid; Standard Abbe refractometry; w1 = 0.01
Assay metric: refractive index

1. [Ca+2].[Cl-].[Cl-] [calcium chloride] + O: 1.3331
2. OC[C@H]1O[C@H](O)[C@H](O)[C@@H](O)[C@@H]1O [α-D-glucose] + O: 1.3329
3. [Cl-].[Na+] [sodium chloride] + O: 1.3333
4. [Cl-].[K+] [potassium chloride] + O: 1.332
